Here, each record is paired with measured AH (absorbance from primary calibrator at level 4 (9.88%)) data.
- Tested on: Neutral protease (manufactured by Toyobo Co., Ltd.)
- ASSAY NOTES: Screening of protease reaction promoter (Example 1)
- Format: biochemical
- PARTICULARS: test sample 1% in R-1; 660 nm
The answer should be a number; do not append a unit.

Below, 5 compounds whose answers are already recorded.
COMPOUND	OBS VALUE
CCCCCCCCCCCCOCCOCCOS(=O)(=O)O.OCCN(CCO)CCO [SBL-2T-36]	93.3
CCCCCCCCCCCC[N+](C)(C)CC(=O)[O-] [AM-301, betaine lauryl dimethylaminoacetate]	122.0
CCCCCCCCCCCCCOCCOCCOCCOCCOCCOCCOCC(=O)[O-].[Na+] [ECTD-6NEX]	82.9
CCCCCCCCCCCCCCCCCC(=O)N(C)CCS(=O)(=O)[O-].[Na+] [SMT, sodium N-stearoyl methyl taurinate]	110.2
CCCCCCCCCCCCOP(=O)(O)O [Phosten HLP, lauryl phosphate]	134.6

Prompt: Consider the compound CCCCCCCCCCCC(=O)N(C)CCS(=O)(=O)[O-].[Na+] [LMT, sodium N-lauroyl methyl taurinate] tested on Neutral protease (manufactured by Toyobo Co., Ltd.); state its AH (absorbance from primary calibrator at level 4 (9.88%)).
Completion: 102.4

Prompt: System Neutral protease (manufactured by Toyobo Co., Ltd.). Read-out AH (absorbance from primary calibrator at level 4 (9.88%)). Item CCCCCCCCCCCCOCCOCCOCCOCCOS(=O)(=O)O.OCCN(CCO)CCO [SBL-4T] . Report value.
Completion: 103.2

Prompt: Name the value of AH (absorbance from primary calibrator at level 4 (9.88%)) reported for C[C@H](CCC(=O)NCCC[N+](C)(C)CCCS(=O)(=O)[O-])[C@H]1CC[C@H]2[C@@H]3[C@H](O)C[C@@H]4C[C@H](O)CC[C@]4(C)[C@H]3C[C@H](O)[C@]12C [CHAPS, reference compound] when tested on Neutral protease (manufactured by Toyobo Co., Ltd.).
Completion: 111.4

Prompt: GET AH (absorbance from primary calibrator at level 4 (9.88%)) where system = Neutral protease (manufactured by Toyobo Co., Ltd.) and item = CCCCCCCCCCCC(=O)N(C)CCC(=O)[O-].[Na+] [Alaninate LN-30, sodium lauroyl methyl alaninate]
Completion: 92.3

Prompt: Print Neutral protease (manufactured by Toyobo Co., Ltd.) AH (absorbance from primary calibrator at level 4 (9.88%)) for CCCCCCCCCCCCOS(=O)(=O)[O-].[Na+] [SLS, sodium lauryl sulfate, reference compound] .
Completion: 53.3

----------
- System: Neutral protease (manufactured by Toyobo Co., Ltd.)
- ASSAY NOTES: Screening of protease reaction promoter (Example 1)
- Assay type: biochemical
- PARTICULARS: judged from Table 1
OBSERVATION TYPE: protease reaction promoting effect (in words)

Example entries and their recorded answers appear below.
COMPOUND	EXPERIMENTAL TARGET	OBS VALUE
CCCCCCCCCCCCCCCCCC(=O)N(C)CCS(=O)(=O)[O-].[Na+] [SMT, sodium N-stearoyl methyl taurinate]	Neutral protease (manufactured by Toyobo Co., Ltd.)	effects were observed
CCCCCCCCCCCC(=O)N(C)CCC(=O)[O-].[Na+] [Alaninate LN-30, sodium lauroyl methyl alaninate]	Neutral protease (manufactured by Toyobo Co., Ltd.)	effects were observed
CCCCCCCCCCCCCOCCOCCOCCOCCOCCOCCOCC(=O)[O-].[Na+]	Neutral protease (manufactured by Toyobo Co., Ltd.)	effects were observed
CCCCCCCCCCCCOCCOCCOCCOCCOCCOCCOCCOCCOCCOCCOCC(=O)O	Neutral protease (manufactured by Toyobo Co., Ltd.)	effects were observed
CCCCCCCCCCCC(=O)N(C)CCS(=O)(=O)[O-].[Na+] [LMT, sodium N-lauroyl methyl taurinate]	Neutral protease (manufactured by Toyobo Co., Ltd.)	effects were observed

Prompt: Please list protease reaction promoting effect (in words) recorded for the compound CCCCCCCCCCCCOCCOCCOCCOCCOS(=O)(=O)O.OCCN(CCO)CCO
Completion: effects were observed

Prompt: Give the value of protease reaction promoting effect (in words) reported for the following: CCCCCCCCCCCCOCCOCCOS(=O)(=O)O.OCCN(CCO)CCO
Completion: effects were observed

----------
- System: Neutral protease (manufactured by Toyobo Co., Ltd.)
- ASSAY NOTES: Screening of protease reaction promoter (Example 1)
- Format: biochemical
- PARTICULARS: test sample 1% in R-1; 660 nm; 20 or more = excellent promoting effect
The following compounds are shown together with reported AH − AL values.
Numeric answer only, unit mAbs assumed.

Please review the following examples before continuing.
COMPOUND	OBSERVATION TYPE	OBS VALUE
CCCCCCCCCCCC(=O)N(C)CCC(=O)[O-].[Na+] [Alaninate LN-30, sodium lauroyl methyl alaninate]	AH − AL	26.7
CCCCCCCCCCCCOCCOCCOCCOCCOS(=O)(=O)O.OCCN(CCO)CCO [SBL-4T]	AH − AL	28.0
CCCCCCCCCCCCOP(=O)(O)O [Phosten HLP, lauryl phosphate]	AH − AL	12.7
CCCCCCCCCCCCOCCOCCOS(=O)(=O)O.OCCN(CCO)CCO [SBL-2T-36]	AH − AL	28.0
C[C@H](CCC(=O)NCCC[N+](C)(C)CCCS(=O)(=O)[O-])[C@H]1CC[C@H]2[C@@H]3[C@H](O)C[C@@H]4C[C@H](O)CC[C@]4(C)[C@H]3C[C@H](O)[C@]12C [CHAPS, reference compound]	AH − AL	6.9

Prompt: Output AH − AL of CCCCCCCCCCCCCOCCOCCOCCOCCOCCOCCOCC(=O)[O-].[Na+] [ECTD-6NEX]
Completion: 29.5

Cited source: patent US8080423B2
